Reference source: patent US9376391B2

- procedure_text: log P by HPLC on reversed phase columns (EEC directive 79/831 Annex V.A8)
- Assay type: physicochemical
- experimental_conditions: Table 1, formula (I); HPLC/LC-MS at pH 2.7, 0.1% formic acid in water / acetonitrile, gradient 10% to 95%
Here, each record is paired with measured logP^[a] data.

{"compound": "CCC1(CC)CC(C)c2c(NC(=O)c3ccc(Cl)nc3C(F)F)cccc21 (racemic)", "logP^[a]": "4.72^[a]"}
{"compound": "CC1(C)CC(C(Cl)Cl)c2c(NC(=O)c3cccnc3C(F)F)cccc21 (stereo not drawn)", "logP^[a]": "3.97^[a]"}
{"compound": "CCC1(C)CC(C)c2c(NC(=O)c3cc(C)cnc3C(F)F)cccc21 (mixture of isomers)", "logP^[a]": "3.94^[a]"}

In: Requested field: logP^[a]. Item: `CCON=C1CCc2c(NC(=O)c3cccnc3C(F)F)cccc21`
Out: 2.54^[a]

In: Requested field: logP^[a]. Item: CC1CCc2cccc(NC(=O)c3cccnc3C(F)F)c21 (racemic)
Out: 2.63^[a]
